Biological target: Adenosine receptor A3 (Homo sapiens, UniProt P0DMS8)
Sequence (P0DMS8 whole entry): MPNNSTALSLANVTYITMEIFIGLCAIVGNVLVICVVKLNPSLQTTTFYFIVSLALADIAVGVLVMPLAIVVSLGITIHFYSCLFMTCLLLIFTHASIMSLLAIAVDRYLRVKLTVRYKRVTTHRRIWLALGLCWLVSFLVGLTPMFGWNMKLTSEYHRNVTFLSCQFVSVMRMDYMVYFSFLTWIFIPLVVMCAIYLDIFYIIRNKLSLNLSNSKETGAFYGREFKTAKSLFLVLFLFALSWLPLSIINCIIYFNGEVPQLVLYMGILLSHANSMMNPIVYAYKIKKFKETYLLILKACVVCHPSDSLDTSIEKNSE
readout: IC50 (µM)
Numeric only. Scale: µM

Query :: So what's the measured IC50 for this one? Fc1ccccc1-c1nc(Nc2cccnc2)nnc1-c1ccnc(C(F)(F)F)c1
Result :: 1.35

---

Target: Adenosine receptor A2b (Homo sapiens, UniProt P29275)
Sequence (P29275 whole entry): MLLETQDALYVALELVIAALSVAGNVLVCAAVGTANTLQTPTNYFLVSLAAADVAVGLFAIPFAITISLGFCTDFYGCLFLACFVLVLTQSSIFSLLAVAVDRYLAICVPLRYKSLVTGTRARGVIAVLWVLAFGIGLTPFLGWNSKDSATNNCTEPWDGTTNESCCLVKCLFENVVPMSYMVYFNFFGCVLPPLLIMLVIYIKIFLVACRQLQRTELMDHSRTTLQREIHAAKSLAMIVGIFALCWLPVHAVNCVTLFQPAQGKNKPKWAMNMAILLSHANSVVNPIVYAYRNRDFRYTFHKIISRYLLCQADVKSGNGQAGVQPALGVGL
readout: pIC50
Lab note: report pIC50 as minus log10 of the concentration in molar units, number only.

Fc1ccccc1-c1nc(Nc2cccnc2)nnc1-c1ccnc(C(F)(F)F)c1 [US12391670, Example 8] = 6.60

// next item, pIC50 requested
Query :: Recall the recorded pIC50 for Cc1nsc(Nc2nnc(-c3ccnc(C(F)(F)F)c3)c(-c3ccccc3F)n2)n1 [US12391670, Example 11] with Adenosine receptor A2b (Homo sapiens, UniProt P29275) and state it.
Result :: 6.00
